Tgt: IL-1β protease (Homo sapiens, UniProt P29466)
Sequence (P29466 120-297 limits assumed): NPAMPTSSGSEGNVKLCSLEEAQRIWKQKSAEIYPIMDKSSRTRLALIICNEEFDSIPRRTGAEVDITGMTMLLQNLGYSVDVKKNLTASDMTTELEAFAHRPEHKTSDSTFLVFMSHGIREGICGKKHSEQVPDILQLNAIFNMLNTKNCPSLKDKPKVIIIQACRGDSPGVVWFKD
pIC50: −log10 of the molar value.
Reported metric: pIC50

Ask: Value lookup for pIC50; key = `C=CCN(Cc1ccc(Cl)cc1Cl)C(=O)CCl`
Reply: ≥ 6.00

###

Tested on: release of mature IL-1β, human monocytes
Assay details: "In vivo" human monocyte pulse chase assay, inhibition of release of mature IL-1β
Format: cell-based
Experimental conditions: fixed S. aureus stimulation, 2-3 donors
Reported metric: IC50

Ask: Value lookup for IC50; key = `C=CCN(Cc1ccc(Cl)cc1Cl)C(=O)CCl`
Reply: < 10 µM

All values here come from patent US5834514A.
